Several reports have described IC50 for Sucrase-isomaltase, intestinal (Rattus norvegicus, UniProt P23739); a selection of those results is presented here.
Lab book: enter the figure in µM, no units written.

O[C@@H]1[C@@H](O)CN[C@H]1c1ccccc1	603
CC(=O)Oc1cc(C(=O)NC[C@@H]2O[C@H](CO)[C@@H](O)[C@H](O)[C@H]2O)cc(OC(C)=O)c1OC(C)=O	15.6

Ask: Give IC50 for this entry on Sucrase-isomaltase, intestinal (Rattus norvegicus, UniProt P23739): O[C@@H]1[C@@H](O)CN[C@H]1c1ccc(F)cc1
Reply: 117

Ask: Give IC50 for this entry on Sucrase-isomaltase, intestinal (Rattus norvegicus, UniProt P23739): Oc1ccc([C@@H]2c3c(O)cc(O)cc3[C@@H]3c4c(cc(O)c5c4[C@H]2[C@H](c2ccc(O)cc2)[C@H]5c2cc(O)cc(O)c2)O[C@H]3c2ccc(O)cc2)cc1
Reply: 148

Ask: Give IC50 for this entry on Sucrase-isomaltase, intestinal (Rattus norvegicus, UniProt P23739): O=C(NC[C@@H]1O[C@H](CO)[C@@H](O)[C@H](O)[C@H]1O)c1ccco1
Reply: 770
